Test system: M. tuberculosis H37Rv
Assay: Antimycobacterial activity: MIC by broth microdilution / Nitrate Reductase Assay
Type: cell-based, Mycobacterium tuberculosis
Details: lowest concentration showing no colour change (NRA)
Record form. Attribute: MIC. Fill in for each entry.
Give bare numbers, in µg/mL.

Below: 5 molecules and their reported MIC.
O=C(Nc1nc2ccc(NC(=O)c3ccc([N+](=O)[O-])o3)cc2s1)c1ccc(Cl)cc1    0.5
O=C(Nc1ccc2nc(NC(=O)c3ccc(F)cc3F)sc2c1)c1ccc([N+](=O)[O-])o1    0.5
O=C(Nc1nc2ccc(NC(=O)c3ccc([N+](=O)[O-])o3)cc2s1)c1ccc(F)cc1    0.5
O=C(Nc1nc2ccc(NC(=O)c3ccc([N+](=O)[O-])o3)cc2s1)c1ccccc1    1
O=C(Nc1nc2ccc(NC(=O)c3ccc([N+](=O)[O-])o3)cc2s1)c1cnccn1    1

# context switch: different molecule, same MIC
Observed MIC on M. tuberculosis H37Rv for O=[N+]([O-])c1ccc(C=NNc2nc3ccc(OC(F)(F)F)cc3s2)s1 , please. 1

====

Test system: M. tuberculosis H37Rv
Test: Antimycobacterial activity: MIC by broth microdilution / Nitrate Reductase Assay
Type: cell-based, Mycobacterium tuberculosis
Settings: Mycobacterium tuberculosis, H37RV, lowest concentration showing no colour change (NRA), read-out: MIC
Record form. Attribute: MIC. Fill in for each entry.

Below: 3 compounds and their reported MIC.
COc1ccc2nc(NNC(=O)c3ccc([N+](=O)[O-])o3)sc2c1 [Compound 4c]    > 16 µg/mL
O=[N+]([O-])c1ccc(C=NNc2nc3ccc(OC(F)(F)F)cc3s2)o1 [Compound 3i]    > 16 µg/mL
NNC(=O)c1ccncc1 [INH, Isoniazid, reference compound]    0.5 µg/mL

// batch mode: one MIC value per listed entry
1. COc1ccc2nc(NN=Cc3ccc([N+](=O)[O-])o3)sc2c1 [Compound 3e]
2. O=[N+]([O-])c1ccc(C=NNc2nc3ccccc3s2)s1 [Compound 3b]
3. O=C(Nc1nc2ccc(NC(=O)c3ccc([N+](=O)[O-])o3)cc2s1)c1ccccc1 [Compound 6a]
4. O=C(NNc1nc2ccc(Cl)cc2s1)c1ccc([N+](=O)[O-])o1 [Compound 4g]
5. O=[N+]([O-])c1ccc(C=NNc2nc3ccc(OC(F)(F)F)cc3s2)s1 [Compound 3j]

1. > 16 µg/mL
2. > 16 µg/mL
3. 0.5 to 8 µg/mL
4. > 16 µg/mL
5. 0.5 to 8 µg/mL

====

Test system: M. tuberculosis H37Rv
Assay: Antimycobacterial activity: MIC by broth microdilution / Nitrate Reductase Assay
Type: cell-based, Mycobacterium tuberculosis
Conditions: Mycobacterium tuberculosis, H37RV, lowest concentration showing no colour change (NRA), read-out: MIC
Record form. Attribute: MIC. Fill in for each entry.

Cc1ccc2nc(NN=Cc3ccc([N+](=O)[O-])o3)sc2c1 [Compound 3c]    > 16 µg/mL
O=[N+]([O-])c1ccc(C=NNc2nc3ccc(Cl)cc3s2)o1 [Compound 3m]    16 µg/mL
Cc1ccc2nc(NN=Cc3ccc([N+](=O)[O-])s3)sc2c1 [Compound 3d]    > 16 µg/mL
O=[N+]([O-])c1ccc(C=NNc2nc3ccccc3s2)o1 [Compound 3a]    > 16 µg/mL
O=[N+]([O-])c1ccc(C=NNc2nc3ccc(F)cc3s2)o1 [Compound 3k]    > 16 µg/mL

# context switch: different compound, same MIC
Need MIC, item COc1ccc2nc(NN=Cc3ccc([N+](=O)[O-])s3)sc2c1 [Compound 3f] > 16 µg/mL
